The reported measurements were obtained from PubChem BioAssay AID1259412.

# Tested on: alternative oxidase (AOX)
# method: AOX inhibitors, oxygen consumption, profiling panel (AID 1259412)
# condition.notes: AOX-dependent respiration, at 500 µM
Activity calls are given as the source filed them. No rule for the calls is given here.
Respond with a class label; see active, inactive

Here are 8 compounds together with their reported answers.
O=C(Nc1cccc(Br)c1)c1cccc(Cl)c1 ... active
Nc1cccc(S(=O)(=O)c2cccc(NC(=O)c3cccc(Cl)c3)c2)c1 ... inactive
Nc1cccc(S(=O)(=O)c2cccc(NC(=O)c3cccc(F)c3)c2)c1 ... inactive
NC(=O)c1ccccc1NC(=O)c1cccc(F)c1 ... inactive
O=C(Nc1ccc(-n2ccnc2)cc1)c1cccc(Br)c1 ... active
COc1cc(NC(=O)c2ccccc2)cc(OC)c1OC ... active
O=C(Nc1cccc(OCc2ccccc2)c1)c1cccc(I)c1 ... active
O=C(Nc1cccc(I)c1)c1cccc(Br)c1 ... active

Query string: // outcome(item) with item = `Cc1cccc(C(=O)Nc2cccc(Cl)c2)c1`
Result string: active

Query string: // outcome(item) with item = `Cc1cccc(C(=O)Nc2ccccc2C(N)=O)c1`
Result string: active

Query string: // outcome(item) with item = `COc1cccc(C(=O)Nc2cccc(OCc3ccccc3)c2)c1`
Result string: active
